# TESTED ON: mouse ATX (Mus musculus, UniProt Q9R1E6)
# ASSAY TEXT: Amplex Red activity assay (ATX inhibition, LPC hydrolysis)
# Assay type: biochemical
# PARTICULARS: mATX 2 nM (values without asterisk); read-out: IC50 (µM) (in mATX 2 nM)
RESULT TYPE: IC50 (µM)

> print(dat)
                              sample.smiles  numeric.value
1  O=C(O)c1ccc(-n2nc3c(c2NC(=O)c2cccc4ccccc24)CSC3)cc1           59.3

* * *

Entries and their pIC50 values follow.
# TESTED ON: human ATX (Homo sapiens)
# ASSAY TEXT: Amplex Red activity assay (ATX inhibition, LPC hydrolysis)
# Type: biochemical
# PARTICULARS: human ATX final concentration 1 nM; LPC 16:0 50 µM; 37 °C; two independent experiments; read-out: IC50 value for human ATX inhibition
pIC50: −log10 of the molar value.
RESULT TYPE: pIC50

> print(dat)
                                   compound                 tested.on  result.type  numeric.value
1  COC(C(=O)Nc1c2c(nn1-c1ccc(Br)cc1)CSC2)(c1ccccc1)C(F)(F)F (stereo not shown) [A17]  human ATX (Homo sapiens)        pIC50           5.70
2  O=C(Nc1c2c(nn1-c1ccc(Br)cc1)CSC2)c1cccc2ccccc12 [A4]  human ATX (Homo sapiens)        pIC50           5.46
3  O=C(Nc1c2c(nn1-c1ccncc1)CSC2)c1cccc2ccccc12 [A16]  human ATX (Homo sapiens)        pIC50           5.12
4  O=C(Nc1c2c(nn1-c1cnccn1)CSC2)c1cccc2ccccc12 [A14]  human ATX (Homo sapiens)        pIC50           5.89
